Test system: SAS cells
Assay: SAS CTG proliferation assay (120 h) (HNSCC, wt amplified)
Type: cell-based
MEASURED PARAMETER: log10 IC50 (log10 of the value in nM)

- ITEM SMILES: "C[C@H](Oc1cc([C@@H]2CCN(C)C2)nc(-c2noc3c2CCC[C@@]32CCCc3sc(N)c(C#N)c32)n1)[C@@H]1CCCN1C"
  MEASURED PARAMETER: "log10 IC50"
  READING: 3.10
- ITEM SMILES: "CNC(=O)c1ccn(-c2cc(O[C@@H](C)[C@@H]3CCCN3C)nc(-c3noc4c3CCC[C@@]43CCCc4sc(N)c(C#N)c43)n2)n1"
  MEASURED PARAMETER: "log10 IC50"
  READING: 1.93
- ITEM SMILES: "C[C@H](Oc1cc(N2CCNC3(CCC3)C2)nc(-c2noc3c2CCC[C@@]32CCCc3sc(N)c(C#N)c32)n1)[C@@H]1CCCN1C"
  MEASURED PARAMETER: "log10 IC50"
  READING: 2.99
- ITEM SMILES: "C[C@H](Oc1cc(N2C[C@H](C)N(C)[C@@H](C)C2)nc(-c2noc3c2CCC[C@@]32CCCc3sc(N)c(C#N)c32)n1)[C@@H]1CCCN1C"
  MEASURED PARAMETER: "log10 IC50"
  READING: 2.88
- ITEM SMILES: "C[C@H](Oc1cc(N2CCN(C)CC2)nc(-c2noc3c2CCC[C@@]32CCCc3sc(N)c(C#N)c32)n1)[C@@H]1CCCN1C"
  MEASURED PARAMETER: "log10 IC50"
  READING: 2.99
